Would you mind telling me the reported melting point of each entry?

// melting point value for COc1cccc2c(C(CC(=O)c3ccc(F)cc3F)C(=O)O)c[nH]c12 (centres unmarked) : 181 to 183 °C

// melting point value for CCCOc1ccc2[nH]cc(CC(=O)O)c2c1 : 133.6 to 136.8 °C

// melting point value for O=C(CC(C(=O)O)c1c[nH]c2cc(F)ccc12)c1ccc(F)cc1F (centres unmarked) : 210 to 214 °C

// melting point value for CCCCCOc1ccc2cccc(CC(=O)O)c2c1 : 104 to 106 °C

// melting point value for COc1ccc2[nH]cc(C(CC(=O)c3ccc(F)cc3F)C(=O)O)c2c1 (centres unmarked) : 205 to 206 °C

// melting point value for O=C(CC(C(=O)O)c1c[nH]c2ccc(Cl)cc12)c1ccc(F)cc1F (centres unmarked) : 236 to 239 °C

// melting point value for O=C(CC(C(=O)O)c1c[nH]c2c(Cl)cccc12)c1ccc(F)cc1F (centres unmarked) : 225 to 227 °C

// melting point value for CCCn1cc(C(CC(=O)c2ccc(C)cc2C)C(=O)O)c2ccccc21 (centres unmarked) : 139 to 141 °C

// melting point value for CCOc1ccc2[nH]cc(CC(=O)O)c2c1 : 86 to 92.7 °C

// melting point value for O=C(CC(C(=O)O)c1c[nH]c2ccc(F)cc12)c1ccc(F)cc1F (centres unmarked) : 207 to 208 °C

// melting point value for O=C(CC(C(=O)O)c1c[nH]c2ccccc12)c1ccccc1 (centres unmarked) : 149 to 150 °C

// melting point value for CCCCOc1ccc2[nH]cc(CC(=O)O)c2c1 : 137.8 to 141.1 °C

// melting point value for Cn1cc(C(CC(=O)c2ccc(F)cc2F)C(=O)O)c2ccccc21 (centres unmarked) : 192 to 193 °C

// melting point value for CCCCOc1ccc2cccc(CC(=O)O)c2c1 : 102 to 104 °C

// melting point value for O=C(CC(C(=O)O)c1c[nH]c2cccc(Cl)c12)c1ccc(F)cc1F (centres unmarked) : 203 to 204 °C

// melting point value for Cc1ccc2[nH]cc(C(CC(=O)c3ccc(F)cc3F)C(=O)O)c2c1 (centres unmarked) : 200 to 202 °C

// melting point value for O=C(CC(C(=O)O)c1c[nH]c2cc(OCc3ccccc3)ccc12)c1ccc(F)cc1F (centres unmarked) : 177 to 178 °C
